Target: rat TRPV1 (Rattus norvegicus (Rat))
Sequence (O35433 whole entry): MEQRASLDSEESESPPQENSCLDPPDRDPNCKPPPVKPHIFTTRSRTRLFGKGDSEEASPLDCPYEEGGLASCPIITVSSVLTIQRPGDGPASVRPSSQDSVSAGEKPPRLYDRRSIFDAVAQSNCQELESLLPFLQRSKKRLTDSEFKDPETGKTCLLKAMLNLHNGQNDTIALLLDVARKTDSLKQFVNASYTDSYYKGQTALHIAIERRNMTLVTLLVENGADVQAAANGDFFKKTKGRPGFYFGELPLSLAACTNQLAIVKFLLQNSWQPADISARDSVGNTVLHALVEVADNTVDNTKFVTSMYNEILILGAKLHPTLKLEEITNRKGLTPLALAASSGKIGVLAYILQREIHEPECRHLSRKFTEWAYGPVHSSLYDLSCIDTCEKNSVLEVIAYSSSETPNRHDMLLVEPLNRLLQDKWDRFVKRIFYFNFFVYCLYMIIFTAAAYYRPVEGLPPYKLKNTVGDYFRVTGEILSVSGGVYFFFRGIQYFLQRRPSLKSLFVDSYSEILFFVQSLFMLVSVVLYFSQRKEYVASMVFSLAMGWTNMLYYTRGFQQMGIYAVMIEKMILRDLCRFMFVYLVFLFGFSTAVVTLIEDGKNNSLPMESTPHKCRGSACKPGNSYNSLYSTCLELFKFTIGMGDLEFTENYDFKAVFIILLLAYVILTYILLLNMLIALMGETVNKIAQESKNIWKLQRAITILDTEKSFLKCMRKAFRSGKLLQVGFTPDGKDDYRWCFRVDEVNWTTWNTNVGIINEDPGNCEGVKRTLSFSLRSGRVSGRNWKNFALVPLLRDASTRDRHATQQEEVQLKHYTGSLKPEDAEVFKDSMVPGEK
Settings: read-out: Rat IC50
Structures can show the parent of a compound that is named as a salt.
Readout type: IC50 (nM)

INSERT INTO assay_data (molecule, readout_type, reported_measurement) VALUES
  ('FC(F)(F)c1cccnc1N1CCc2nc(C3CC3)nc(Nc3ccc(Cl)cc3)c2CC1 [Example 4]', 'IC50', 500),
  ('CC(C)(C)c1ccc(Nc2nc(N3CCCCC3)nc3c2CCN(c2ncccc2C(F)(F)F)CC3)cc1 [Example 42]', 'IC50', 49),
  ('CC(C)c1nc2c(c(Nc3ccc(SC(F)(F)F)cc3)n1)CCN(c1ncccc1C(F)(F)F)CC2 [Example 104]', 'IC50', 320),
  ('CC(C)c1nc2c(c(Nc3ccc(C(F)(F)F)cc3)n1)CCN(c1ncc(C(=O)O)cc1Cl)CC2 [Example 288, trifluoroacetic acid salt]', 'IC50', 2020);
